- Test system: Escherichia coli
- METHOD_SUMMARY: Antimicrobial activity against Escherichia coli DH5[alpha] by CLSI agar dilution method
VALUE_KIND: MIC (µg/mL)
Report as a plain number; the unit µg/mL is understood.

These solved cases illustrate the format of a correct answer.
INSERT INTO measurements (substance_smiles, value_kind, reported_value) VALUES
  ('CS(=O)(=O)c1ccc([C@@H](O)[C@@H](CF)NC(=O)C(Cl)Cl)cc1', 'MIC', 4),
  ('O=C(N[C@H](CO)[C@H](O)c1ccc([N+](=O)[O-])cc1)C(Cl)Cl', 'MIC', 4);

Next item in the queue.
The reported MIC value, Escherichia coli, for CCN1CCN(c2cc3c(cc2F)c(=O)c(C(=O)O)cn3C2CC2)CC1 reads 0.016

---

Reported values of MIC for individual entries
- Test system: Escherichia coli
- METHOD_SUMMARY: Antimicrobial activity against Escherichia coli DH5[alpha] by CLSI agar dilution method
Report as a plain number; the unit µg/mL is understood.

Please fill in: MIC reported for CCn1cc(C(=O)O)c(=O)c2cc(F)c(N3CCNCC3)cc21 [NORFLOXACIN] = 0.03

Please fill in: MIC reported for CC(=O)c1c(C)[n+]([O-])c2ccccc2[n+]1[O-] [MEQUINDOX] = 4

Please fill in: MIC reported for CN[C@@H]1[C@H](O[C@H]2[C@H](O[C@H]3[C@H](O)[C@@H](O)[C@H](N=C(N)N)[C@@H](O)[C@@H]3N=C(N)N)O[C@@H](C)[C@]2(O)C=O)O[C@@H](CO)[C@H](O)[C@H]1O [STREPTOMYCIN] = 4

Please fill in: MIC reported for Cc1c(C(=O)NCCO)[n+]([O-])c2ccccc2[n+]1[O-] [OLAQUINDOX] = 8

Please fill in: MIC reported for CN(C)[C@@H]1C(O)=C(C(N)=O)C(=O)[C@@]2(O)C(O)=C3C(=O)c4c(O)cccc4[C@@](C)(O)[C@H]3C[C@@H]12 [TETRACYCLINE] = 2

Please fill in: MIC reported for CCn1cc(C(=O)O)c(=O)c2ccc(C)nc21 [NALIDIXIC ACID] = 2

---

- Tested on: Escherichia coli
- METHOD_SUMMARY: Antimicrobial activity against oqxAB positive Escherichia coli C600 X1B1-T transconjugant by CLSI agar dilution method
Kindly apply the following: 1.0 if MIC is less than 20 µg/mL, 0.0 in every other case.

Exercise: is_below(MIC, 20 µg/mL) for O=C(N[C@H](CO)[C@H](O)c1ccc([N+](=O)[O-])cc1)C(Cl)Cl [CHLORAMPHENICOL] ?
Key: 0.0

Exercise: is_below(MIC, 20 µg/mL) for CS(=O)(=O)c1ccc([C@@H](O)[C@@H](CF)NC(=O)C(Cl)Cl)cc1 [FLORFENICOL] ?
Key: 1.0

Exercise: is_below(MIC, 20 µg/mL) for CC1(C)S[C@@H]2[C@H](NC(=O)[C@H](N)c3ccccc3)C(=O)N2[C@H]1C(=O)O [AMPICILLIN] ?
Key: 1.0

Exercise: is_below(MIC, 20 µg/mL) for CC(=O)c1c(C)[n+]([O-])c2ccccc2[n+]1[O-] [MEQUINDOX] ?
Key: 0.0

Exercise: is_below(MIC, 20 µg/mL) for CN(C)[C@@H]1C(O)=C(C(N)=O)C(=O)[C@@]2(O)C(O)=C3C(=O)c4c(O)cccc4[C@@](C)(O)[C@H]3C[C@@H]12 [TETRACYCLINE] ?
Key: 0.0

Exercise: is_below(MIC, 20 µg/mL) for CCN1CCN(c2cc3c(cc2F)c(=O)c(C(=O)O)cn3C2CC2)CC1 [ENROFLOXACIN] ?
Key: 1.0

Exercise: is_below(MIC, 20 µg/mL) for CCn1cc(C(=O)O)c(=O)c2ccc(C)nc21 [NALIDIXIC ACID] ?
Key: 1.0

Exercise: is_below(MIC, 20 µg/mL) for Cc1c(C(=O)NCCO)[n+]([O-])c2ccccc2[n+]1[O-] [OLAQUINDOX] ?
Key: 0.0

Exercise: is_below(MIC, 20 µg/mL) for CCn1cc(C(=O)O)c(=O)c2cc(F)c(N3CCNCC3)cc21 [NORFLOXACIN] ?
Key: 1.0

Exercise: is_below(MIC, 20 µg/mL) for CN[C@@H]1[C@H](O[C@H]2[C@H](O[C@H]3[C@H](O)[C@@H](O)[C@H](N=C(N)N)[C@@H](O)[C@@H]3N=C(N)N)O[C@@H](C)[C@]2(O)C=O)O[C@@H](CO)[C@H](O)[C@H]1O [STREPTOMYCIN] ?
Key: 0.0

---

- Test system: Escherichia coli
- METHOD_SUMMARY: Antimicrobial activity against Escherichia coli C600 by CLSI agar dilution method
Reported values of MIC for individual entries
Report as a plain number; the unit µg/mL is understood.

These solved cases illustrate the format of a correct answer.
INSERT INTO measurements (substance_smiles, value_kind, reported_value) VALUES
  ('CCN1CCN(c2cc3c(cc2F)c(=O)c(C(=O)O)cn3C2CC2)CC1', 'MIC', 0.016),
  ('CCn1cc(C(=O)O)c(=O)c2ccc(C)nc21', 'MIC', 2),
  ('CC(=O)c1c(C)[n+]([O-])c2ccccc2[n+]1[O-]', 'MIC', 4);

Please fill in: MIC reported for CS(=O)(=O)c1ccc([C@@H](O)[C@@H](CF)NC(=O)C(Cl)Cl)cc1 = 2

Please fill in: MIC reported for Cc1c(C(=O)NCCO)[n+]([O-])c2ccccc2[n+]1[O-] = 8

Please fill in: MIC reported for O=C(N[C@H](CO)[C@H](O)c1ccc([N+](=O)[O-])cc1)C(Cl)Cl = 4

Please fill in: MIC reported for CC1(C)S[C@@H]2[C@H](NC(=O)[C@H](N)c3ccccc3)C(=O)N2[C@H]1C(=O)O = 4

Please fill in: MIC reported for CN(C)[C@@H]1C(O)=C(C(N)=O)C(=O)[C@@]2(O)C(O)=C3C(=O)c4c(O)cccc4[C@@](C)(O)[C@H]3C[C@@H]12 = 1

Please fill in: MIC reported for CCn1cc(C(=O)O)c(=O)c2cc(F)c(N3CCNCC3)cc21 = 0.03

Sourced from ChEMBL document CHEMBL1687783
